The reported numbers originate from PubChem BioAssay (NCATS).

assay: Quantitative High-Throughput drug screen in 47 multiple myeloma cell lines against the NCATS MIPE library collection: JIM1_ECACC cell viability assay (AID 1918964); settings: JIM1 myeloma viability, CellTiter-Glo ATP luminescence, 48 h; series mostly up to 45.8 µM
Results filed as inconclusive are left out. Active and inactive are the calls of the source. Calls follow the shape of the dose curve; as a rule, active = well fitted cell-killing curve with a large enough effect; inconclusive = small, poorly fitted or top-dose-only effect, or effect the other way; inactive = no such curve, though single readings can be large or run the other way.
Assign a class; possible classes are active, inactive

The following molecules have reported results that may help.
> print(dat)
                                   molecule  assigned.label
1  OCCN1CCN(CCCN2c3ccccc3Sc3ccc(C(F)(F)F)cc32)CC1          active
2  O=C1Cc2cc(CCN3CCN(c4nsc5ccccc45)CC3)c(Cl)cc2N1        inactive
3  O=C1c2c(O)ccc(O)c2C(=O)c2c(NCCNCCO)ccc(NCCNCCO)c21          active

What classification did CN1C2CCC1CC(OC(=O)C(CO)c1ccccc1)C2 (stereo unspecified) end up with in this test? inactive

Same for NCCCCCC(=O)O inactive

Same for CC(=O)OCC(CCn1cnc2cnc(N)nc21)COC(C)=O inactive

###

Assay: qHTS of pediatric cancer cell lines to identify multiple opportunities for drug repurposing: Primary screen for Saos-2 cells (AID 1347097); also: % is scaled to controls: 0 for no effect and ±100 for the full control effect; nearly all actives have a fitted effect of over 40% in size
Settings: Saos-2 viability, CellTiter-Glo ATP luminescence, 48 h; series mostly up to 46 µM
Experimental: Drug repurposing or repositioning has been offered as a strategy for drug development in oncology programs. This approach has special potential for childhood cancers and other rare or orphan diseases, where the expected return on new drug development has been a disincentive to pharmaceuticals. […] We employed a titration-based paradigm (quantitative high-throughput screening or qHTS), where all compounds were tested at multiple concentrations for their effect on cell viability. […]
Records with an inconclusive call do not appear. The source made the active and inactive calls. Calls follow the shape of the dose curve; as a rule, active = well fitted cell-killing curve with a large enough effect; inconclusive = small, poorly fitted or top-dose-only effect; inactive = no such curve, though single readings can be large or run the other way.
experimental_endpoint: outcome

# count of solved cases: 5
> print(dat)
                                   molecule  experimental.endpoint    result
1              CCOC(=O)C(C)(C)Oc1ccc(Cl)cc1                outcome  inactive
2                  Clc1ccc2nsnc2c1NC1=NCCN1                outcome  inactive
3  COc1ccccc1OCC(O)CN1CCN(CC(=O)Nc2c(C)cccc2C)CC1 (stereo unspecified)                outcome  inactive
4  CC(C)Cc1ccc(C(C)C(=O)O)cc1 (stereo unspecified)                outcome  inactive
5                             NCCc1cnc[nH]1                outcome  inactive

What outcome value was documented for this molecule, COc1ccc(CCN(C)CCCC(C#N)(c2ccc(OC)c(OC)c2)C(C)C)cc1OC (stereo unspecified) ? inactive

Same for NC12CC3CC(CC(C3)C1)C2 inactive

Same for CC(C)(C)C(=O)Oc1ccc(S(=O)(=O)Nc2ccccc2C(=O)NCC(=O)O)cc1 inactive

Same for Fc1ccc([C@@H]2CCNC[C@H]2COc2ccc3c(c2)OCO3)cc1 inactive

Same for CN(C)C(=N)N=C(N)N inactive

Same for CC1(C)O[C@H]2CC(=O)OC[C@]23[C@H]2CC[C@@]4(C)[C@H](c5ccoc5)OC(=O)[C@H]5O[C@]54[C@]2(C)C(=O)C[C@@H]13 inactive

###

Documented Potency across a set of molecules
assay: qHTS of pediatric cancer cell lines to identify multiple opportunities for drug repurposing: Confirmatory screen for A673 cells (AID 1347110); conditions: A673 Ewing sarcoma cell viability; series mostly up to 45.9 µM;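 also: potency is read from the fitted curve at half-maximal effect; cells exposed to compound for 48 h before the viability read; nearly all actives have a fitted effect of over 65% in size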
Inconclusive results are not listed. Active and inactive are the calls of the source. The call rests on the fitted dose curve; in most records, active means well fitted cell-killing curve with a large enough effect; inconclusive means small, poorly fitted or top-dose-only effect; inactive means flat fitted curve, though single readings scatter.

# count of solved cases: 3
> print(dat)
                                   molecule             result
1  CC(C)C(=O)Nc1ccc([N+](=O)[O-])c(C(F)(F)F)c1   10.4 µM (active)
2  O=C1c2c(O)ccc(O)c2C(=O)c2c(NCCNCCO)ccc(NCCNCCO)c21  0.147 µM (active)
3  CC(C)Cc1ccc(C(C)C(=O)O)cc1 (stereo not given)   6.57 µM (active)

What Potency value was documented for this molecule, CC[C@@]1(O)C(=O)OCc2c1cc1n(c2=O)Cc2cc3c(CN(C)C)c(O)ccc3nc2-1 ? 0.131 µM (active)

###

experiment: qHTS of Trypanosoma Brucei Inhibitors: LOPAC Validation (AID 624147); settings: purified enzyme assay, luminescence, 45 min; series mostly up to 57.5 µM
Inconclusive results are not listed. The source made the active and inactive calls. Calls follow the shape of the dose curve; as a rule, active = well fitted inhibition curve with a large enough effect; inconclusive = small, poorly fitted or top-dose-only effect; inactive = flat fitted curve, though single readings scatter.
Assign a class; possible classes are t for active, f for inactive

> print(dat)
                                   compound  assigned.label
1  CC(CCc1ccc(O)cc1)NCCc1ccc(O)c(O)c1 (configuration not stated)               f
2  CC(COc1ccccc1)N(CCCl)Cc1ccccc1 (configuration not stated)               f
3  CC#C[C@]1(O)CC[C@H]2[C@@H]3CCC4=CC(=O)CCC4=C3[C@@H](c3ccc(N(C)C)cc3)C[C@@]21C               t
4                             NCCc1cnc[nH]1               f
5  CCCNCC(O)COc1ccccc1C(=O)CCc1ccccc1 (configuration not stated)               f

What classification did CN(C)CCOC(c1ccccc1)c1ccccc1 end up with in this test? f

Same for CN1CCC(=C2c3ccccc3C=Cc3ccccc32)CC1 f

Same for CCN1CCCC1CNC(=O)c1cc(S(=O)(=O)CC)c(N)cc1OC (configuration not stated) f

###

experiment: qHTS assay for small molecule activators of the p53 signaling pathway (AID 651743); conditions: HCT-116 p53RE-bla, beta-lactamase FRET ratio, 16 h; stronger effect = higher value; also: % of control where 0% means no effect
Inconclusive results are not listed.
experimental_endpoint: activation (%)
Return type: number; implicit unit %.

# count of solved cases: 3
> print(dat)
                                   compound  experimental.endpoint  result
1  CC(C)Cc1ccc(C(C)C(=O)O)cc1 (centres undefined)             activation   -2.52
2                   Nc1c2c(nc3ccccc13)CCCC2             activation       1
3  COc1ccc(CCN(C)CCCC(C#N)(c2ccc(OC)c(OC)c2)C(C)C)cc1OC (centres undefined)             activation    -2.6

Please turn your attention to the following entry.
What activation value was documented for this compound, NCCS(=O)(=O)O ? -1.87

###

experiment: Quantitative High-Throughput drug screen in 47 multiple myeloma cell lines against the NCATS MIPE library collection: EJM_DSMZ cell viability assay (AID 1918926; also: nearly all actives have a fitted effect of over 30% in size); conditions: EJM myeloma cell viability, CellTiter-Glo ATP, 48 h; series mostly up to 45.8 µM
Inconclusive results are not listed. Calls of active or inactive are those of the source. Calls follow the shape of the dose curve; as a rule, active = well fitted cell-killing curve with a large enough effect; inconclusive = small, poorly fitted or top-dose-only effect, or effect the other way; inactive = no such curve, though single readings can be large or run the other way.
Assign a class; possible classes are TRUE for active, FALSE for inactive

> print(dat)
                                   compound  assigned.label
1  CN1C2CCC1CC(OC(=O)C(CO)c1ccccc1)C2 (stereo unspecified)           FALSE
2         CN(C)CCCN1c2ccccc2CCc2ccc(Cl)cc21            TRUE
3     CC(=O)OCC(CCn1cnc2cnc(N)nc21)COC(C)=O           FALSE
4  CCN1CCCC1CNC(=O)c1cc(S(=O)(=O)CC)c(N)cc1OC (stereo unspecified)           FALSE
5  CCc1cccc2c3c([nH]c12)C(CC)(CC(=O)O)OCC3 (stereo unspecified)           FALSE

Next, consider the following compound.
What classification did Clc1ccccc1C(c1ccccc1)(c1ccccc1)n1ccnc1 end up with in this test? FALSE

###

Assay: qHTS assay for small molecule agonists of the antioxidant response element (ARE) signaling pathway measured by Nrf2-dependant transcriptional activity (AID 720636);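 also: HepG2 cells with an ARE-driven luciferase reporter; % of control where 0% means no effect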
Conditions: ARE-luc HepG2, Nrf2 luciferase reporter, 16 h; series mostly up to 92.4 µM
Excerpt: National Center for Advancing Translational Sciences [NCATS] NIH Chemical Genomics Center [NCGC] U.S. Environmental Protection Agency [EPA] National Institutes of Environmental Health Sciences [NIEHS] National Toxicology Program [NTP] Assay Overview: The antioxidant response element (ARE) signaling pathway plays an important role in the cellular anti-oxidant defense. […]
Records with an inconclusive call do not appear. Activity calls are given as the source filed them. Calls follow the shape of the dose curve; as a rule, active = well fitted activation curve with a large enough effect in the repeat runs; inconclusive = weak or mixed curves; inactive = flat fitted curve, though single readings scatter.
experimental_endpoint: outcome

# count of solved cases: 6
> print(dat)
                                   molecule    result
1  O=C(CCCN1CCC(O)(c2ccc(Cl)cc2)CC1)c1ccc(F)cc1  inactive
2                             NCCS(=O)(=O)O  inactive
3  COc1ccc2c(c1)c(CC(=O)O)c(C)n2C(=O)c1ccc(Cl)cc1  inactive
4  COc1cc2c(c(OC)c1OC)-c1ccc(OC)c(=O)cc1[C@@H](NC(C)=O)CC2  inactive
5                CCC1(c2ccccc2)C(=O)NCNC1=O  inactive
6                Cn1cnc2c1c(=O)[nH]c(=O)n2C  inactive

What outcome value was documented for this molecule, N[C@@H](Cc1c[nH]c2ccc(O)cc12)C(=O)O ? inactive

Same for CN(Cc1cnc2nc(N)nc(N)c2n1)c1ccc(C(=O)N[C@@H](CCC(=O)O)C(=O)O)cc1 inactive

Same for Cc1cn([C@H]2C[C@H](N=[N+]=[N-])[C@@H](CO)O2)c(=O)[nH]c1=O inactive

Same for O=C(c1ccc(OCCN2CCCCC2)cc1)c1c(-c2ccc(O)cc2)sc2cc(O)ccc12 inactive

Same for Cn1c(=O)c2[nH]cnc2n(C)c1=O inactive

Same for O=C(Nc1ccc([N+](=O)[O-])cc1Cl)c1cc(Cl)ccc1O inactive

Same for CC(C)Cc1ccc(C(C)C(=O)O)cc1 (configuration not stated) inactive

Same for Clc1ccc(C(c2ccccc2Cl)C(Cl)Cl)cc1 (configuration not stated) inactive

Same for Cn1c(=O)c2c(ncn2C)n(C)c1=O inactive

Same for CC(C)NCC(O)c1ccc(O)c(O)c1 (configuration not stated) inactive

Same for Nc1ccn([C@H]2CC[C@@H](CO)O2)c(=O)n1 inactive

Same for C[C@](N)(Cc1ccc(O)c(O)c1)C(=O)O inactive
